- Tested on: EKVX
- assay.explanation: NCI tumour cell line growth inhibition, 48 h
Active and inactive are the calls of the source. No stated cut-off is given here; in the data, active = GI50 up to about 1.1 µM and inactive = higher.
Outcomes you can answer with include only these: y for active, n for inactive

C[C@]12CC[C@H](O)CC1=CC[C@@H]1[C@@H]2CC[C@]2(C)C(=O)CC[C@@H]12 [PRASTERONE]    n
C/C=C/C[C@@H](C)C(=O)C1C(=O)N[C@@H](C(C)C)C(=O)N(C)CC(=O)N(C)[C@@H](CC(C)C)C(=O)N[C@@H](C(C)C)C(=O)N(C)[C@@H](CC(C)C)C(=O)N[C@@H](C)C(=O)N[C@@H](C)C(=O)N(C)[C@@H](CC(C)C)C(=O)N(C)[C@@H](CC(C)C)C(=O)N(C)[C@@H](C(C)C)C(=O)N1C (some centres not stated)    n
COC(=O)N/N=C/C(=C/Nc1ccccc1)[N+](=O)[O-]    n
CCOC(=O)C(C/C=C/CO)N(C)C(=O)OC(C)(C)C (configuration not stated)    n
CCOC(=O)/C(SC#N)=C(/N)N1CCCC1    n
CC(C)(C)c1ccc(C(C)(C)C)c(N2C(=O)C3ON=C(c4ccc([N+](=O)[O-])cc4)C3C2=O)c1 (configuration not stated)    n
N#CC[C@@H](O)COc1ccccc1    n
Oc1c(N2CCOCC2)cc(-c2cc(N3CCOCC3)c(O)c3ccccc23)c2ccccc12    n
O=S(=O)(c1ccccc1)N1CCC1c1ccccc1 (configuration not stated)    n
O=C(Nc1ccc(S(=O)(=O)Nc2ncccn2)cc1)c1c2ccccc2nc2ccccc12    n

Ask: Can you look up the reported call for C/C=C/C=C\C=C/C(O)C(C)C(CCC(C)C1OC(=O)C=CC1C)OP(=O)(O)O (configuration not stated) for me?
Reply: y

Ask: Can you look up the reported call for O=C1C(N2CCNCC2)=C(Cl)C(=O)c2ncccc21 for me?
Reply: n

Ask: Can you look up the reported call for N#Cc1nnn(-c2ccc(Br)cc2)c1O for me?
Reply: n

Ask: Can you look up the reported call for CCOC(=O)C1S/C(=N\c2ccc(Cl)cc2Cl)N=C1C (configuration not stated) for me?
Reply: n

Ask: Can you look up the reported call for CS(=O)(=O)OCCCNCCCOS(C)(=O)=O for me?
Reply: n

----------
- System: MDA-MB-231
- assay.explanation: NCI tumour cell line growth inhibition, 48 h
Activity calls are given as the source filed them. No stated cut-off is given here; in the data, active = GI50 up to about 1.1 µM and inactive = higher.
Outcomes you can answer with include only these: active, inactive

// known answers, use as guide
Oc1ccc(/C=N/c2ccccc2O)cc1    inactive
C=C(C)C1CCC(C(=O)O)CC1 (stereo not drawn)    inactive
O=c1cc(-c2ccccc2F)[nH]c2ccc(N3CCCC3)cc12    active
C#C[C@]1(O)CC[C@H]2[C@@H]3CCC4=C/C(=N/OCCN(C)C)CC[C@]4(C)[C@H]3CC[C@@]21C    inactive
CCOC(=O)c1sc2nc(SC)nc3c2c1NC(=O)CN3c1cccc(F)c1    inactive
C=C1c2nc3ccccc3n2C=C(c2ccccc2)N1c1ccccc1    inactive
O=[N+]([O-])c1ccc(N/N=C2/CC3=C2CCCCCCCCCC3)c([N+](=O)[O-])c1    inactive

# next molecule below
Ask: Can you look up the reported call for CCc1nc2c(c(N(C)C)c1C(=O)OC)CCc1ccccc1-2 for me?
Reply: inactive
